System: Rhizomucor pusillus 46342
Experiment: In vitro antifungal assay (Example IX), microdilution broth, MEC
Type: cell-based
Conditions: minimum effective concentration (shortening of hyphae), 35° C., 40-48 h, RPMI1640
Recorded measurements of minimal effective concentration, one per entry

Solved entries:
COMPOUND	RESULT
Nc1ncccc1-c1cc(Cc2ccc(CC3=CCOC3)cc2)no1	> 1 µg/mL
Nc1ncccc1-c1cnn(Cc2ccc(OCc3ccccc3)nc2)c1	> 1 µg/mL
Nc1ncccc1-c1cc(Cc2ccc(Cc3ccc(F)o3)cc2)no1	0.01 to 0.1 µg/mL

Determine its reported minimal effective concentration: N#CCCOc1ccc(Cc2cc(-c3cccnc3N)on2)cn1
> 1 µg/mL

Determine its reported minimal effective concentration: Nc1ncccc1-c1cc(Cc2ccc(Cc3cc(F)cc(F)c3)cc2)no1
0.1 to 1 µg/mL

Determine its reported minimal effective concentration: Nc1ncccc1-c1cc(Cc2ccc(OCc3cccnc3)nc2)no1
> 1 µg/mL

Determine its reported minimal effective concentration: Nc1ncccc1-c1cc(Cc2ccc(OCc3cccc(F)n3)nc2)no1
> 1 µg/mL

Determine its reported minimal effective concentration: Nc1ncccc1-c1cc(Cc2ccc(SCc3ccccc3)nc2)no1
> 1 µg/mL

Determine its reported minimal effective concentration: Nc1ccc(-c2cc(Cc3ccc(OCc4nccs4)cc3)no2)c(N)n1
0.1 to 1 µg/mL

Determine its reported minimal effective concentration: Nc1ncccc1-c1cc(Cc2ccc(N3CCC3c3ccccc3)nc2)no1 (stereo not shown)
0.1 to 1 µg/mL

Determine its reported minimal effective concentration: Nc1ncccc1-c1cc(Cc2ccc(Cn3cc(C(F)(F)F)cn3)cc2)no1
0.1 to 1 µg/mL

Determine its reported minimal effective concentration: Nc1ncccc1-c1cc(Cc2cccc(OCc3cccc(F)c3)n2)no1
> 1 µg/mL

Determine its reported minimal effective concentration: N#CCc1ccc(Cc2cc(-c3cccnc3N)on2)cc1
> 1 µg/mL

Determine its reported minimal effective concentration: Nc1ncccc1-c1cc(Cc2ccc(OCCc3cccc(F)c3)nc2)no1
> 1 µg/mL

Determine its reported minimal effective concentration: Nc1ncccc1-c1cc(Cc2ccc(OCc3ncco3)nc2)no1
0.1 to 1 µg/mL

Determine its reported minimal effective concentration: Nc1ncccc1-c1cc(Cc2ccc(CCl)cc2)no1
> 1 µg/mL

Determine its reported minimal effective concentration: Nc1ncccc1-c1cc(Cc2ccc(Cc3cc(F)nc(F)c3)cc2)no1
0.1 to 1 µg/mL

Determine its reported minimal effective concentration: Nc1ncccc1-c1cc(Cc2ccc(Oc3ncc(Cl)cc3F)cc2)no1
0.1 to 1 µg/mL

Determine its reported minimal effective concentration: CC(C)(O)c1cccc(Cc2ccc(Cc3cc(-c4cccnc4N)on3)cc2)c1
> 1 µg/mL

Determine its reported minimal effective concentration: Cn1cc(COc2ccc(Cc3cc(-c4cccnc4N)on3)cn2)cn1
> 1 µg/mL

Determine its reported minimal effective concentration: Nc1ncccc1-c1cc(Cc2ccc(COc3cccc4ccccc34)cc2)no1
> 1 µg/mL

Determine its reported minimal effective concentration: Nc1ncccc1-c1cc(Cc2ccnc(OCc3ccccc3F)c2)no1
> 1 µg/mL

Determine its reported minimal effective concentration: COc1ccc(COc2ccc(Cc3cc(-c4cccnc4N)on3)cc2)cc1
> 1 µg/mL

Determine its reported minimal effective concentration: Nc1ncccc1-c1cc(Cc2ccc(Oc3nc(Cl)cs3)cc2)no1
0.1 to 1 µg/mL

Determine its reported minimal effective concentration: Nc1ncccc1-c1cc(Cc2ccc(OCc3cncc(F)c3)cc2)no1
> 1 µg/mL

Determine its reported minimal effective concentration: Nc1ncccc1-c1cc(Cc2ccc(-c3ccccn3)cc2)no1
> 1 µg/mL
